FYI, the data here is from paper PMC6435032.

assay type: in vivo; conditions: ACI rats after GG or GI 2 g/kg/day gavage + EB for 4 days
metric: Presence in liver and mammary tissues (qualitative)

> print(dat)
                                   compound  readout.value
1  O=C1C[C@@H](c2ccc(O)cc2)Oc2cc(O)ccc21 [LigF, liquiritigenin]      available
2  O=C(/C=C/c1ccc(O)cc1)c1ccc(O)cc1O [LigC, isoliquiritigenin]      available
3  C=CC(C)(C)c1cc(/C=C/C(=O)c2ccc(O)cc2)c(OC)cc1O [LicA, licochalcone A]      available
